# measuredOn: T1, VEGFR-1-Fc (UniProt P17948 27-338)
# T1 construct: domain: first three Ig domains; expressed in Drosophila S2 cells, purified on Protein A sepharose; also called VEGFR-1-Fc fusion protein; not shown: Fc fragment from the Signal-pIgPlus vector
# assayName: receptor-Fc IP
# Description: The binding assay procedure was identical to the immunoprecipitation using pentahistidine antibody described in Example 2, apart from the composition of the immunoprecipitation (IP) mixes. […]

| binder | binding result |
| --- | --- |
| 74-10 (ligand) GQNHHEVVKSIDNEWRKTQCMPREVCIDVGKEFGVATNTFFKPSCVPLMRCGGCCNDEGLECMNTSTSYLSKTLFEITVPLSQGPKPVTISFLQHNKCECRPKKD | no binding |
| 81-15 (ligand) AHYNTEILKFMDVYQRSYCHPIETLVDIFQEYPDEIEYIFKPSCVPLMRCGGCCNSEGLQCVPTEESNITMQIMRITVPLSQGPKPVTISFANHTSCRCMSKLD | binds |
| 41-7 (ligand) AHYNTEILKFMDVYQRSYCHPREVCIDVGKEYPDEIEYIFKPSCVPLMRCGGCCNSEGLQCVPTEESNITMQIMRIKPHQGQHIGEMSFANHTSCRCMSKLD | no binding |
| 43-11 (ligand) AHYNTEILKFMDVYQRSYCHPREVCIDVGKEYPDEIEYIFKPPCVSVYRCGGCCNSEGLQCVPTEESNITMQIMRITVPLSQGPKPVTISFLQHNKCECRPKKD | no binding |
